From: the supplement of paper PMC10290057

- Tested on: HCT116;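 also: Luminescence-based viability readout, five doses per compound, normalized against on-plate DMSO and empty-well controls, followed by dose-response curve fitting for every drug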
- ASSAY REMARKS: efficacy (fitted maximal change in viability relative to DMSO control); higher = less cytotoxic (negative = loss of viability)
- STATED CONDITIONS: 48 h
Please note: label 1 applies when efficacy is -50% or greater, and label 0 applies otherwise.

{"columns": ["TEST SMILES", "CLASS NAME"],
 "data": [
  ["CC(C)CC(=O)Nc1n[nH]c2c1CN(C(=O)C1CCN(C)CC1)C2(C)C", "label 0"]
]}

Task: Test whether the compound CCNC(=O)c1noc(-c2cc(C(C)C)c(O)cc2O)c1-c1ccc(CN2CCOCC2)cc1 records efficacy of -50% or higher.
Output: label 0

Task: Reported efficacy at or above -50%? O=C(CCc1ccc(O)cc1)c1c(O)cc(O)cc1O
Output: label 1

Task: Is the recorded value of efficacy equal to or greater than -50% for this compound? COc1cc([C@@H]2c3cc4c(cc3[C@H](O)[C@H]3COC(=O)[C@H]23)OCO4)cc(OC)c1OC
Output: label 0

Task: Given CN[C@@H](C)C(=O)N[C@H](C(=O)N1CCC[C@H]1C(=O)Nc1sc(-c2ncco2)nc1-c1ccccc1)C1CCCCC1 , state whether its efficacy is at least -50%.
Output: label 1

Task: Check the entry CCOC(=O)/C=C/[C@H](C[C@@H]1CCNC1=O)NC(=O)[C@@H](CC(=O)[C@@H](NC(=O)c1cc(C)on1)C(C)C)Cc1ccc(F)cc1 : does efficacy equal or exceed -50%?
Output: label 1
